Reference source for all entries: BindingDB's records for doi:10.1021/jm060978s

pIC50: −log10 of the molar value.
Parameter pIC50, tested on Coagulation factor X (Homo sapiens), listed per item.
Sequence (P00742 41-179 limits assumed): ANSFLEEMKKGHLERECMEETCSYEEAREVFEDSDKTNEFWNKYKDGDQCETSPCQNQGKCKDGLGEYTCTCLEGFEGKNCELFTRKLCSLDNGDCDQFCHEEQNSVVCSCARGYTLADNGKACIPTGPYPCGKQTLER
Sequence (P00742 235-488 limits assumed): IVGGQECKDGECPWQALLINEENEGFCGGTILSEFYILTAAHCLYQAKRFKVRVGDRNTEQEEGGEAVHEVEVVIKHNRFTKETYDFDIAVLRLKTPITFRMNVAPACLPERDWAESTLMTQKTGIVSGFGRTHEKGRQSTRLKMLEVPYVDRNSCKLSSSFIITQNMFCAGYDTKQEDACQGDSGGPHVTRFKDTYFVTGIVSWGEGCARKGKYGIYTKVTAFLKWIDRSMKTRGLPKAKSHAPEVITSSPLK
Readout type: pIC50

>  <Molecule>
CC(C)[C@H](NC(=O)[C@H](Cc1ccccc1)NC(=O)NCc1ccc(Cl)c(Cl)c1)C(=O)N[C@@H](CCCN=C(N)N)C(=O)c1nccs1

>  <Experimental value>
4.85

$$$$
>  <Molecule>
CCOC(=O)C(CC(C)C)NC(=O)N[C@@H](Cc1ccccc1)C(=O)N[C@H](C(=O)N[C@@H](CCCN=C(N)N)C(=O)c1nccs1)C(C)C (some centres not stated)

>  <Experimental value>
4.81

$$$$

----------
List of pIC50 tested on Coagulation factor XI (Homo sapiens, UniProt P03951).
Sequence (P03951 19-387 limits assumed): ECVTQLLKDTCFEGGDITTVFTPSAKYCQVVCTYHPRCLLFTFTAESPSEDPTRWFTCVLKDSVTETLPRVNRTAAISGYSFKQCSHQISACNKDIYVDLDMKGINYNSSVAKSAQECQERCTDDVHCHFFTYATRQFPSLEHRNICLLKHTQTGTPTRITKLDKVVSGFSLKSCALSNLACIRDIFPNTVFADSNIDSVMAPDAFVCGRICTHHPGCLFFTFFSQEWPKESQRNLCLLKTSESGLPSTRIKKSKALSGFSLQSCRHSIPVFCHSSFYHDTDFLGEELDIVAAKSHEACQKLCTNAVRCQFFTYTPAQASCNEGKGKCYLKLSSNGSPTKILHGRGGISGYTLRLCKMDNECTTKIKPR
Sequence (P03951 388-625 limits assumed): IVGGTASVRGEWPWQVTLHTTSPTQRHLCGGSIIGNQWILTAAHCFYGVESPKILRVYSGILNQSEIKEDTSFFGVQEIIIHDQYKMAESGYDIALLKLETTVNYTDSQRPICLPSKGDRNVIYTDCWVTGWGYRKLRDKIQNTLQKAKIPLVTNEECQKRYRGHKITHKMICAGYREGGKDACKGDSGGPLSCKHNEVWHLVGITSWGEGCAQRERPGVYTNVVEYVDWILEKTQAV
pIC50: −log10 of the molar value.
Readout type: pIC50

>  <Compound>
CC(C)[C@H](NC(=O)[C@H](Cc1ccccc1)NC(=O)NCc1ccc(Cl)c(Cl)c1)C(=O)N[C@@H](CCCN=C(N)N)C(=O)c1nccs1

>  <Measurement target>
Coagulation factor XI (Homo sapiens, UniProt P03951)

>  <Experimental value>
7.03

$$$$
>  <Compound>
CC(C)[C@H](NC(=O)[C@H](Cc1ccccc1)NS(=O)(=O)c1ccc(Cl)c(Cl)c1)C(=O)N[C@@H](CCCN=C(N)N)C(=O)c1nccs1

>  <Measurement target>
Coagulation factor XI (Homo sapiens, UniProt P03951)

>  <Experimental value>
5.64

$$$$
>  <Compound>
CCOC(=O)C(Cc1ccccc1)NC(=O)N[C@@H](Cc1ccccc1)C(=O)N[C@H](C(=O)N[C@@H](CCCN=C(N)N)C(=O)c1nccs1)C(C)C (some centres undefined)

>  <Measurement target>
Coagulation factor XI (Homo sapiens, UniProt P03951)

>  <Experimental value>
6.59

$$$$
>  <Compound>
CCOC(=O)C(CC(C)C)NC(=O)N[C@@H](Cc1ccccc1)C(=O)N[C@H](C(=O)N[C@@H](CCCN=C(N)N)C(=O)c1nccs1)C(C)C (some centres undefined)

>  <Measurement target>
Coagulation factor XI (Homo sapiens, UniProt P03951)

>  <Experimental value>
6.39

$$$$

----------
- Measurement target: Prothrombin (Homo sapiens, UniProt P00734)
- Experiment: Enzyme Inhibition Assay

>  <Molecule>
CCOC(=O)C(CC(C)C)NC(=O)N[C@@H](Cc1ccccc1)C(=O)N[C@H](C(=O)N[C@@H](CCCN=C(N)N)C(=O)c1nccs1)C(C)C (some centres undefined)

>  <IC50 [µM]>
2.1

$$$$
>  <Molecule>
CC(C)[C@H](NC(=O)[C@H](Cc1ccccc1)NC(=O)Nc1ccccc1)C(=O)N[C@@H](CCCN=C(N)N)C(=O)c1nccs1

>  <IC50 [µM]>
0.935

$$$$
>  <Molecule>
CC(C)[C@H](NC(=O)[C@H](Cc1ccccc1)NC(=O)NCc1ccc(F)cc1)C(=O)N[C@@H](CCCN=C(N)N)C(=O)c1nccs1

>  <IC50 [µM]>
4.3

$$$$
>  <Molecule>
CC(C)[C@H](NC(=O)[C@H](Cc1ccccc1)NC(=O)NCc1ccc(Cl)c(Cl)c1)C(=O)N[C@@H](CCCN=C(N)N)C(=O)c1nccs1

>  <IC50 [µM]>
6.7

$$$$
